Test system: PPARg:RXRa (NR concentration 180 nM, RXRa partner concentration 90 nM)
experiment_notes: PBM binding z-score (relative to random genomic background probes); higher = stronger binding; sequences stand for … in GC…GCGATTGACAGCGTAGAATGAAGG
Would you mind labelling by PBM binding z-score? At or over 0.6 is satisfied, under is not satisfied.

ATCTTTAGGTAAGACTCAGTTCAGTGAAGAACGC :: not satisfied
TCTTGTAGATCTGCAGGTTAAGAAAGCTGGCCAA :: not satisfied
CCTAGGAGGCCAATCTGGGTCACTCAAGGCTTGA :: satisfied
CCTCGGAGGACAACGGGAGGTCAGAGCTGCCAGA :: not satisfied
CCTACTGGGCCGAAGGTCATTGATTCCAATGCTC :: satisfied
CGTCCAAGGTCAAGGTCAGTGAGAGAGACTCGAA :: satisfied
GCTCGTAGATCAAGGTTAAGAAAGACTAAGCTAA :: not satisfied
CCGAGTAGGATATGGGGCATTCAGGCAACGGTGA :: satisfied
GCTGCTAGGTCAGGTTGGTAAGCTAACGGGTACG :: not satisfied
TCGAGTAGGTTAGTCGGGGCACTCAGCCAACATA :: not satisfied

Check this sequence for PBM binding z-score at or above 0.6: CGAACTAGGTCACAGAGGTCAAAGTCCGTGCGTA satisfied

Check this sequence for PBM binding z-score at or above 0.6: ATATATAGGTTAGCTGGGGTCATTCAGACTAGGC satisfied

Check this sequence for PBM binding z-score at or above 0.6: CAAACTAGGTCAAGGGCAAAGTCGGTTTGTGCCA satisfied

* * *

Measured PBM binding z-score accompanies every entry in the list below.
Tested on: VDR homodimer (NR concentration 270 nM)
experiment_notes: PBM binding z-score (relative to random genomic background probes); higher = stronger binding; sequences stand for … in GC…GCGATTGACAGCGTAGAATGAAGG

CGATCTAGGTCATTGACAGGACAGTGAATAGTAA :: 1.49
TCGAGTAGGTTAGTCGGGGCATTCAGCCAACATA :: 0.0153
CGATCTAGGTCAGAACAGGACAGTGAAGGATGAT :: -0.107
ACTAGCAGGCCAAGTTTGGGTTACTCAAACAAAG :: -0.21
TCATATAGGTAAACAGGTGATAGTCCGTAAGTTA :: 0.482

// next item, PBM binding z-score requested
Record AGTCAAAGTTCAGGACGAGGAAACGTAAAGCACG , field PBM binding z-score: 1.64

* * *

System: PPARg:RXRa 30nM:10nM, anti-RXR (NR concentration 30 nM, RXRa partner concentration 10 nM)
experiment_notes: PBM binding z-score (relative to random genomic background probes); higher = stronger binding; sequences stand for … in GC…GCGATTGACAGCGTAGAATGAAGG
test_readout: PBM binding z-score
// return just the number, without any unit appended

Reference set, count: 10
AGAAGGAGGTTATTAAGATCAGGGAATTGCGGTC :: 0.314
GCTCGGAGGACAAGGTCAAAGCTTTGTCCGTAGA :: 0.553
CTCGAGAGGTCGGTTGAGGTGAGTATACGGATAA :: -0.178
TCTAGTTGGTCACGGAGGTCACTCACGACGGGTA :: 3.29
TCTTGTAGATCAATAGATGTTAAGAAAGTGCGCT :: 3.17
TCTATTAGTTGAAGGGCGACCGACGAGTCCGTTT :: 3.99
GCTAGTTGGTCATTAAAAGGTCACACACCGGTCG :: 1.5
TCGAGCAGGTTAGGGGCATTCAGAATGGCGTCGA :: 0.0683
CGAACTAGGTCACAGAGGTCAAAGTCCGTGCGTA :: 7.02
CATCAAAGTTCAAGGTAACGTAACAGAAAGCAGC :: 1.71

Record TCTACTTGGTCAAAGGTCACACACTCGAAATGCG , field PBM binding z-score: 10.5

Record TCGAGTAGGTTAGTCGGGGCATCCAGCCAACATA , field PBM binding z-score: 0.993

Record TTACCAAGGTGAGCTGAGGACGTTGATCCAACTC , field PBM binding z-score: -0.263

Record ATATGTAGGGTAGCTGGGGTCATTCAGACTAGGC , field PBM binding z-score: 2.14

* * *

Test system: PPARg:RXRa (NR concentration 180 nM, RXRa partner concentration 90 nM)
experiment_notes: PBM binding z-score (relative to random genomic background probes); higher = stronger binding; sequences stand for … in GC…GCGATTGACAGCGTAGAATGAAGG
Would you mind labelling by PBM binding z-score? At or over 2 is class 1, under is class 0.

AGTCAACGTTCAGGACGAGGTAACGTAAAGCACG :: class 0
ATCTCTAGGTAACATGTTCAGTGAAAGAGAGGAC :: class 0
AGAATGAGGTTATACATAGATCAGGGAAGAAAGT :: class 1

Check this sequence for PBM binding z-score at or above 2: CTCGAAAGGTCGTGCGCAGGTGAGTATACCAAAC class 1

Check this sequence for PBM binding z-score at or above 2: CCGACTGGGGCGTAAGGTTACCATAAGCCAGCCC class 0

Check this sequence for PBM binding z-score at or above 2: TAGCCTAGGTCATGCGGGCGAGTATAGTGTCGGC class 1

Check this sequence for PBM binding z-score at or above 2: TGGCCTAGGTCAGATCGGGCCAGTATACGCTATA class 0

Check this sequence for PBM binding z-score at or above 2: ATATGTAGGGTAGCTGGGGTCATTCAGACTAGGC class 1

Check this sequence for PBM binding z-score at or above 2: CGTCCAAGGTCATAGGCGGTCAGTGAAGACAGAT class 1

Check this sequence for PBM binding z-score at or above 2: TCATATAGGTAAAGGTCAAAGTCGAACGATATGA class 1

* * *

Measured PBM binding z-score accompanies every entry in the list below.
Tested on: PPARg homodimer (NR concentration 180 nM)
experiment_notes: PBM binding z-score (relative to random genomic background probes); higher = stronger binding; sequences stand for … in GC…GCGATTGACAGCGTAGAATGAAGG

Reference set, count: 3
ATCGAAGGGTCGTGAGGTGAGTATACAGAAAGGC :: 1.33
GCTATTAGTTGAAAGTGCAACCGAATGATTCTCG :: 0.768
CGTGAAAGTTCAACTAAGGTAACGTAAAGCACGC :: 2.63

Fill in: PPARg homodimer (NR concentration 180 nM) PBM binding z-score for ATCGAAAGGTCGACTAGGTGAGTATACACCGTTT = 0.62

Fill in: PPARg homodimer (NR concentration 180 nM) PBM binding z-score for CCTAATGGGCCATCAGGTCATTGATATCAACGTT = 1.81

Fill in: PPARg homodimer (NR concentration 180 nM) PBM binding z-score for ATCTCTAGGTAAGACTCAGTTCAATGAAGAACGC = 1.39

* * *

Tested on: PPARg:RXRa (NR concentration 180 nM, RXRa partner concentration 90 nM)
experiment_notes: PBM binding z-score (relative to random genomic background probes); higher = stronger binding; sequences stand for … in GC…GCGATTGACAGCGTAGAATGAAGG
Would you mind labelling by PBM binding z-score? At or over 3 is T, under is F.

Consider the following illustrative entries.
ATATGTAGGTTTTCGGGTCATTCAGTTTGCGCAT :: T
AGAACGAGGTTATTAAGATCAGGGAATTGCGGTC :: F
TCTGCTAGGTCAACGATGGTCAGGTAATCTGCTA :: F
CCTGCTAGGTCAATGGTCACCTAAAGCAGCTCGC :: T
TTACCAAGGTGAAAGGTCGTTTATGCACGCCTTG :: T

Check this sequence for PBM binding z-score at or above 3: CGAACGAGTGCATGAGTTGATAGCAAATGCCGAT F

Check this sequence for PBM binding z-score at or above 3: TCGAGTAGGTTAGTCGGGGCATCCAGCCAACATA F

Check this sequence for PBM binding z-score at or above 3: TATACACGGTCAAAGGCCAGAGTACGAATGTCGA T

Check this sequence for PBM binding z-score at or above 3: AGAACGAAGGCACGCTGAGTTGATAGCAGAGTAG F

Check this sequence for PBM binding z-score at or above 3: TCTGGTAGGTCAACGATGGTCAGCTAATCTGCTA T

* * *

Measured PBM binding z-score accompanies every entry in the list below.
Test system: THRa:RXRa (NR concentration 90 nM, RXRa partner concentration 90 nM)
experiment_notes: PBM binding z-score (relative to random genomic background probes); higher = stronger binding; sequences stand for … in GC…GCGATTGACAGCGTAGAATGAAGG
// return just the number, without any unit appended

Reference set, count: 10
TAGCCTAGTTCAGATCGGGCCAGTATACGCTATA :: 2.53
CTTACTGGGCCAAGGTCATTGATCAGTCAAAGCA :: 3.43
CCTCAAAGTTCAAGGTAACGTAACAGAAAGCAGC :: 3.32
ATCTCTAGGTAACCAAGTTCAGTTAATGCCGAAC :: 1.97
CCGACTGGGGCATAACGTTACCATAAGCCAGCCC :: -0.497
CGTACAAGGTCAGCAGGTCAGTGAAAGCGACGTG :: 3.93
CCTACTGGGCCAAAAAGGTCCTTGATGCCGATAA :: -0.265
ATCTCTAGGCAACCAAGTTCAGTGAATGCCGAAC :: 0.9
GCTTGTAGATCAAGGTTAACAAAGACTAAGCTAA :: 1.49
ATATGTTGGTTAGCTGGGGTCATTCAGACTAGGC :: 4.21

Fill in: THRa:RXRa (NR concentration 90 nM, RXRa partner concentration 90 nM) PBM binding z-score for ACTAGTTGGTCAGCTGAGGTCACTCACAATTCGG = 4.98

Fill in: THRa:RXRa (NR concentration 90 nM, RXRa partner concentration 90 nM) PBM binding z-score for AGAATGAGGTTATTAAGATCAGGGAGTTGCGGTC = 2.17

Fill in: THRa:RXRa (NR concentration 90 nM, RXRa partner concentration 90 nM) PBM binding z-score for ATATGTAGGTTAGCTGGGGTCATTCGGACTAGGC = 5.12
